- target_or_system: KOR (Mus musculus)
- Construct: expressed in transfected cells; host or cells: CHO cells (provided by Dr. Selley, Virginia Commonwealth University)
- method_notes: competitive radioligand binding assay, KOR
- condition_set: CHO cell membranes; mean ± SEM (n ≥ 3)
assay_readout: Ki (nM)
Number in nM, nothing else.

Item: `O=C(N[C@H]1CC[C@@]2(O)[C@H]3Cc4ccc(O)c5c4[C@@]2(CCN3CC2CC2)[C@H]1O5)c1cccc2cc[nH]c12` | Ki: 1.69

* * *

- target_or_system: human δ-opioid receptor (DOR) (Homo sapiens, UniProt P41143)
- Construct: expressed in transfected cells; host or cells: CHO cells (provided by Dr. Selley, Virginia Commonwealth University)
- method_notes: competitive radioligand binding assay, DOR
- condition_set: CHO cell membranes; mean ± SEM (n ≥ 3)
assay_readout: Ki (nM)
Number in nM, nothing else.

human δ-opioid receptor (DOR) (Homo sapiens, UniProt P41143) data for `O=C(N[C@H]1CC[C@@]2(O)[C@H]3Cc4ccc(O)c5c4[C@@]2(CCN3CC2CC2)[C@H]1O5)c1cccc2cc[nH]c12` ; its Ki: 13.7
